Species: Rattus norvegicus
Experiment: Open TG-GATES - Regimen: Single
Assay type: toxicity, organism-based, Sprague-Dawley
Design: regimen Single, gender Male, age 6 weeks
Conditions: in vivo, po, 100 mg/kg, 9 h, tissue Blood, route gavage, dose level Low
Below, each entry is listed with its recorded PT.
Measurement kind: PT

>  <Compound>
O=C(OC[C@H]1O[C@@H](OC(=O)c2cc(O)c(O)c(OC(=O)c3cc(O)c(O)c(O)c3)c2)[C@H](OC(=O)c2cc(O)c(O)c(OC(=O)c3cc(O)c(O)c(O)c3)c2)[C@@H](OC(=O)c2cc(O)c(O)c(OC(=O)c3cc(O)c(O)c(O)c3)c2)[C@@H]1OC(=O)c1cc(O)c(O)c(OC(=O)c2cc(O)c(O)c(O)c2)c1)c1cc(O)c(O)c(OC(=O)c2cc(O)c(O)c(O)c2)c1 [TANNIC ACID]

>  <Observed value>
12 s

$$$$
>  <Compound>
CNC(=C[N+](=O)[O-])NCCSCc1ccc(CN(C)C)o1 [RANITIDINE]

>  <Observed value>
12.6 s

$$$$
>  <Compound>
CN/C(=N/CCSCc1nc[nH]c1C)NC#N [CIMETIDINE]

>  <Observed value>
13.7 s

$$$$
>  <Compound>
Cc1nnc2n1-c1ccc(Cl)cc1C(c1ccccc1Cl)=NC2 [TRIAZOLAM]

>  <Observed value>
13.7 s

$$$$
>  <Compound>
COC(=O)C1=C(C)NC(C)=C(C(=O)OC)C1c1ccccc1[N+](=O)[O-] [NIFEDIPINE]

>  <Observed value>
14.6 s

$$$$
